System: HUVEC cells
procedure_summary: Proliferation assay (CellTiter 96 Aqueous One)
Type: cell-based
experimental_context: Homo sapiens, read-out: Concentration that inhibits HUVEC cell proliferation by 50%
readout_name: pIC50
A value of pIC50 is the negative decimal logarithm of a concentration given in moles per litre.

query: Please indicate pIC50 recorded for `CC(C)=CCC[C@]1(C)C=Cc2c(O)c3c(c(CC=C(C)C)c2O1)O[C@]12C(=C[C@@H]4C[C@H]1C(C)(C)O[C@@]2(C/C=C(/C)C(=O)O)C4=O)C3=O`
result: 7.10
